Just for reference, the supplement of paper PMC9170038 is where these values come from.

- Test system: MS2 coat protein
- Test: apparent KD of MS2 coat protein; designed switch direction (-1 OFF switch, 1 ON switch): -1; higher = weaker reporter binding
- Test context: Eterna round: R95; input ligand: microRNA oligo, concentration not stated
Experimental endpoint: apparent KD of MS2 coat protein (nM)
Numeric answer only, unit nM assumed.

Check out these entries, answers already filled in.
{"Primary sequence": "CUUAGCCUAAAAUCACGCAAGCCUUUUGCUUGUCUUAAGACAUGAGGAUCACCCAUGUCCGGGCUGAACUUAUGGAA [Geanon] (puzzle: Sensor v3, turn-off variant 2)", "Uom": "nM", "apparent KD of MS2 coat protein": 33.3}
{"Primary sequence": "AAAUGAUGUCAGGAUAUUGACGUUAAAAGAACGCAAGAAGGGACAACAUGAGGAUCACCCAUGUGGUCCUAUAA [Bira] (puzzle: Exclusion 6)", "Uom": "nM", "apparent KD of MS2 coat protein": 13}

Then this sequence:
stdin: Need apparent KD of MS2 coat protein of GACUGAACGUGGUCUGGUUACAUGAGGAUCACCCAUGUAGGUCUAAGAACAUGUCUUUUGUACGCUCGUCUUAUAUA [JR_SV3TOV1_Sub066] (puzzle: Sensor v3, turn-off variant 1) , thanks.
stdout: 38.1

###

- System: MS2 coat protein
- Test: apparent KD of MS2 coat protein; higher = weaker reporter binding
- Test context: Eterna round: R107; input ligand: arginine 13.2 mM
Experimental endpoint: apparent KD of MS2 coat protein
Write the quantity with the unit trailing the number.

{"Primary sequence": "GCCGCUGCCGCGGUGUGUGUGGGUGGGUGACGAGGACCGGUACGGCCGCCACUCGCGAUCGCACAUGAGGAUCACCCAUGUGUAA [Exclusion Tryp A GF20]", "apparent KD of MS2 coat protein": "13.3 nM"}
{"Primary sequence": "UUGUUGUUUGGAAGGAGCGUGUAAGAUUAAGAACAUGAGGAUCACCCAUGUUUUAAGGGAACACAGGUAGGUCGCCGGGUGGUGG [11.R]", "apparent KD of MS2 coat protein": "15.5 nM"}

stdin: Need apparent KD of MS2 coat protein of CGCAACCAACAUGAGGAUCACCCAUGUGAAGGAGCGCCGAAGAAGGCAGGUAGGUCGCACAUGAAUAAAUCAUGUAAAAGGUUGC [MAT - Exclusion Arginine A - Mod of Eli - D19] , thanks.
stdout: 17.7 nM

stdin: Need apparent KD of MS2 coat protein of AAUUCCUAACAUGAGGAUCACCCAUGUGAAGGAGCGCCGAAUAAGGCAGGUAGGUCGCACAUGGAACCGCUACGAAAGUAGCAAA , thanks.
stdout: 22.5 nM

stdin: Need apparent KD of MS2 coat protein of ACGACGCAUAGUGAUACCAGCACAACAUGAGGAUCACCCAUGUCACAUAUGUUGUAAUAAUGCCCUUGGCAGCACUAUGCGUCAG [SSTheo B #2] , thanks.
stdout: 34.6 nM

stdin: Need apparent KD of MS2 coat protein of ACAUGGGUCUGAAGGAGCGCGAUAACAUGAGGAUCACCCAUGUAAAAUGGAACAUGAUAAUCGCAGGUAGGUCGCAGUAAAACCC [Same State Arginine B GF 11] , thanks.
stdout: 133 nM

stdin: Need apparent KD of MS2 coat protein of ACAUGAGGAUCACCCAUGUCUGCCUCGGAUACCAGCGGAAGAAAACGCCCUUGGCAGCCGAACAUGAGGAUCACCCAUGUAGGCU [Same State Theophylline A GF30] , thanks.
stdout: 28.8 nM

###

Item-by-item account of apparent KD of MS2 coat protein
- Test system: MS2 coat protein
- Test: apparent KD of MS2 coat protein; designed switch direction (-1 OFF switch, 1 ON switch): 1; higher = weaker reporter binding
- Test context: input ligand: FMN 200 uM
Numeric answer only, unit µM assumed.

stdin: Need apparent KD of MS2 coat protein of GGAAACUUGAGAGGAUAUGUAGAGGAUCACCCUACAGAAGGCUCAUUUGAGAGGAUAUGUAGAGGAUCACCCUACAGAAGGCUC [pwkr ssNG DX.13] (Eterna round: R96, puzzle: Same State NG 1) , thanks.
stdout: 0.0296

stdin: Need apparent KD of MS2 coat protein of AGAAAACAUGAGGAUCACCCAUGUAGAAAUAUGGGAGGAUAUACAAAGACGAAAGUCAAGGUAGAAGGCCUAAAGA [Mat - Same State 1 - Meechl mod - D124] (Eterna round: R96, puzzle: Same State 1) , thanks.
stdout: 0.0196

stdin: Need apparent KD of MS2 coat protein of GAGCUCGUGUGAGGAUAUGCCGCCGUUUCGGCUGCAGAAGGUGCUACGUUACAUGAGGAUCACCCAUGUCUCUGUUGUUUCGUA [salish99_SSNG1_r04_960] (Eterna round: R96, puzzle: Same State NG 1) , thanks.
stdout: 0.0651

stdin: Need apparent KD of MS2 coat protein of GAGCUCGUGUGAGGAUAUGCCGCCGUUUCGGCUGCAGAAGGUGCUACGUUACAUGAGGAUCACCCAUGUCUCUGUUGUUUCGUC [salish99_SSNG1_r04_961] (Eterna round: R96, puzzle: Same State NG 1) , thanks.
stdout: 0.0251

###

- System: MS2 coat protein
- Test: apparent KD of MS2 coat protein; designed switch direction (-1 OFF switch, 1 ON switch): -1; higher = weaker reporter binding
- Test context: input ligand: FMN 200 uM
Experimental endpoint: apparent KD of MS2 coat protein (µM)
Numeric answer only, unit µM assumed.

Check out these entries, answers already filled in.
{"Primary sequence": "ACAUGAGGAUCACCCAUGUUGUACUGGAUAGGGUGGUCCAGGUAGGAUAUGCAAACGCGUUGCGAGCAGAAGGACCACAGCCAG [Ceed] (Eterna round: R96, puzzle: Exclusion NG 3)", "System name": "MS2 coat protein", "Uom": "µM", "apparent KD of MS2 coat protein": 0.0498}
{"Primary sequence": "GAAAAUUGAGGAUAUCCAAAAGGCCACAUGAGGAUCACCCAUGUGUAUCCUCGGCCCAAAGGAGAAGGCAAGAUAA [EX5 A.23] (Eterna round: R97, puzzle: Exclusion 5)", "System name": "MS2 coat protein", "Uom": "µM", "apparent KD of MS2 coat protein": 0.974}

Then this sequence:
stdin: # returns recorded apparent KD of MS2 coat protein (system: MS2 coat protein) for GGGAAGAACCAACAAGCAAACAUGAGGAUCACCCAUGUAGUAGGAGGAAGAAAGGUGAUUUAGAAAGCUCGACUUAU [AK-miRNA-r3-6] (Eterna round: R97, puzzle: Sensor, turn-off variant 1)
stdout: 0.159

###

- Test system: K4 kissing-loop RNA reporter;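 note: bound reporter read as fluorescence of individual clusters on recovered sequencing chips by microscopy, with normalized cluster intensities fitted with a binding model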
- Test: apparent KD of K4 kissing-loop reporter; higher = weaker reporter binding
- Test context: Eterna round: R107; input ligand: tryptophan 2.4 mM
Item-by-item account of apparent KD of K4 kissing-loop reporter
Write the quantity with the unit trailing the number.

Check out these entries, answers already filled in.
{"Primary sequence": "AAGAAUAAUCUUGCAGUGAUGUUGCAAGAUACCAGCAUCGAAAGAUGCCCUUGGCAGCUUGAAACUGCAAGAAUCAAGCUGAAUA [Design1]", "System name": "K4 kissing-loop RNA reporter", "apparent KD of K4 kissing-loop reporter": "137 nM"}
{"Primary sequence": "GCGCGGGAGUGAUGUUCCAAGUGGUGUUAACGAGGACCGGUACGGCCGCCACUCGUUACGGCCGGGCCGUAGGAUACACUGGCGC [Same State - Tryptophan A (Freestyle 16)]", "System name": "K4 kissing-loop RNA reporter", "apparent KD of K4 kissing-loop reporter": "415 nM"}
{"Primary sequence": "GGUAGCAUGGCGGCCGCCACUCUUCAUUAGUGAUGUUAAUGCCGAGUGCGCUAACUCCAACAGGAGAGGACCGGGCCAUGCUACC", "System name": "K4 kissing-loop RNA reporter", "apparent KD of K4 kissing-loop reporter": "98.8 nM"}
{"Primary sequence": "UUUAAAUAUAGUGAUGUUAUAUAACAAUGACGAGGACCGGUACGGCCGCCACUCGAGAGAGAUAAUGGUCAUGCAAAUGUAUGUC [#15 K4 Tryptophan A Same State]", "System name": "K4 kissing-loop RNA reporter", "apparent KD of K4 kissing-loop reporter": "615 nM"}
{"Primary sequence": "GGAUCCACCAGUGAUGUUGGAGAAAACUCCAAGGAUAUGACGAAAGUCAGAAGGUGGUAGACUGGACAAAGUCCGGUCGGAUCCA [FmnA 23 #SwitchBubble #K4Early]", "System name": "K4 kissing-loop RNA reporter", "apparent KD of K4 kissing-loop reporter": "160 nM"}
{"Primary sequence": "UACAAACGUAGUGAUGUUACGUACUCUGAUACCAGACAACUCUAAGUCCCUUGGCAGCAGUCAUUUUGCUUAUUAUUUUCUCAAA [JR_ExcTheophyA_Sub018]", "System name": "K4 kissing-loop RNA reporter", "apparent KD of K4 kissing-loop reporter": "75.2 nM"}

stdin: Need apparent KD of K4 kissing-loop reporter of AGAUUCGACACGGCCGCCACUCGUGGUGGAUUACCGAGUGUCGAAGUUGAGUGAUGUUCAAGUACGAGGACCGGGUGUUGAGUCU [KL-XTryp-B9 #analogue] , thanks.
stdout: 435 nM

stdin: Need apparent KD of K4 kissing-loop reporter of ACGUGAAGCGACUCCUAGUUAAACCGGGAAGGAGCGCGGAUAACCGCAGGUAGGUCGCCCGGAAGCCGGACCAGUGAUGUUGGUC [Exclusion Arginine A Gf 26] , thanks.
stdout: 198 nM
